target.desc: human PDGFRβ (Homo sapiens, UniProt P09619)
Construct: expressed in transfected cells
Sequence (P09619 33-1106): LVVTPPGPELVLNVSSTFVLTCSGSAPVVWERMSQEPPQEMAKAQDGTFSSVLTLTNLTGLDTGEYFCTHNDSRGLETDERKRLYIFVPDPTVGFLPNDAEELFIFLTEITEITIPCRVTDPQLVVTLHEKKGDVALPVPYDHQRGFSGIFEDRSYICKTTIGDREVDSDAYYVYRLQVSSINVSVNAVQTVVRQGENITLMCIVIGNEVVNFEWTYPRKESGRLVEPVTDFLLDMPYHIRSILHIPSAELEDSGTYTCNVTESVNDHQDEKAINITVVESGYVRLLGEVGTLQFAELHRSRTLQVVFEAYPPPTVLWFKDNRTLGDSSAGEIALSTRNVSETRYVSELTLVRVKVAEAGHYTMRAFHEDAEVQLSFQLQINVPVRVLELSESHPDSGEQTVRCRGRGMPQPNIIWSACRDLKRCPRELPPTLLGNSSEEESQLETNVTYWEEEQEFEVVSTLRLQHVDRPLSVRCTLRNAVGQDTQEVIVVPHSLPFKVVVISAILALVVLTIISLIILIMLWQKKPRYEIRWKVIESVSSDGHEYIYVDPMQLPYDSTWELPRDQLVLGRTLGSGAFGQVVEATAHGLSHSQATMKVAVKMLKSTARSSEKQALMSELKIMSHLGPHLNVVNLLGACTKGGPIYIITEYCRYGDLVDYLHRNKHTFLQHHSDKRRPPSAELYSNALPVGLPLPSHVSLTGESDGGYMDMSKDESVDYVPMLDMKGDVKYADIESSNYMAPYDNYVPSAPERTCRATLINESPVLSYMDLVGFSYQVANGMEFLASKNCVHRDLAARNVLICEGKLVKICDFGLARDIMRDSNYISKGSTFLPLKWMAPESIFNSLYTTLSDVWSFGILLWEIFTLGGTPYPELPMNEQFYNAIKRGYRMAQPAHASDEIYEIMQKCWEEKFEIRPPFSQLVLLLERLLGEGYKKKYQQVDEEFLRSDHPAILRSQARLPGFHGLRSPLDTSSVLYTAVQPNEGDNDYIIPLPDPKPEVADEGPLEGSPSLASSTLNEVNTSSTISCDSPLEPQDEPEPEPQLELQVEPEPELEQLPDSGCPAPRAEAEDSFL
assay.explanation: PDGF dependent cell proliferation (MTS)
Assay type: cell-based
condition.info: PDGFRβ NIH-3T3 cells, PDGF BB 50 ng/ml, 72 hours, serum-free medium; read-out: GI50 nM (PDGF ligand-dependent cell proliferation)
Experimental: PDGF Dependent Cell Proliferation: NIH-3T3 mouse fibroblasts cell line engineered to stably express human PDGFIRβ was constructed and used to evaluate PDGF dependent cell proliferation. […] The effects on proliferation were determined by addition of MTS reagent (Promega) according to the instruction, incubation for 2 hours at 37° C. in CO2 incubator, and record the absorbance at 490 nm using an ELISA plate reader.
Condition met if GI50 is below 50 nM. Condition not met if not; exact matches included in Condition not met.

# count of solved cases: 8
[
  {
    "molecule": "COc1cc2nccc(Oc3ccc4c(C(=O)NCc5ccc(C(=O)Nc6ccccc6N)cn5)cccc4c3)c2cc1OC [Example 38]",
    "class": "Condition not met"
  },
  {
    "molecule": "COc1cc2ncnc(Oc3ccc4c(C(=O)Nc5ccc(F)cc5N)cccc4c3)c2cc1OC [Example 17]",
    "class": "Condition met"
  },
  {
    "molecule": "COc1ccc2c(Oc3ccc4c(C(=O)NCc5ccc(C(=O)Nc6ccccc6N)cn5)cccc4c3)ccnc2c1 [Example 34]",
    "class": "Condition not met"
  },
  {
    "molecule": "COc1ccc2c(Oc3ccc4c(C(=O)Nc5ccccc5N)cccc4c3)ccnc2c1 [Example 31]",
    "class": "Condition met"
  },
  {
    "molecule": "COc1cc2ncnc(Oc3ccc4c(C(=O)NCc5ccc(C(=O)Nc6ccccc6N)cn5)cccc4c3)c2cc1OC [Example 25]",
    "class": "Condition not met"
  },
  {
    "molecule": "COc1cc2ncnc(Oc3ccc4c(C(=O)NCc5ccc(C(=O)Nc6ccccc6N)cc5)cccc4c3)c2cc1OC [Example 23]",
    "class": "Condition not met"
  },
  {
    "molecule": "COc1cc2nccc(Oc3ccc4c(C(=O)NCc5ccc(C(=O)Nc6ccccc6N)cc5)cccc4c3)c2cc1OC [Example 37]",
    "class": "Condition not met"
  },
  {
    "molecule": "Nc1ccccc1NC(=O)c1cccc2cc(Oc3ccnc4c(C(F)(F)F)cccc34)ccc12 [Example 42]",
    "class": "Condition met"
  }
]

Task: Consider COc1ccc2c(Oc3ccc4c(C(=O)Nc5ccc(F)cc5N)cccc4c3)ccnc2c1 [Example 32] . Does its GI50 lie strictly below 50 nM?
Result: Condition met

Task: Also COc1ccc(NC(=O)c2cccc3cc(Oc4ncnc5cc(OC)c(OC)cc45)ccc23)c(N)c1 [Example 19] , if possible.
Result: Condition met

Task: Also Nc1ccccc1NC(=O)c1cccc2cc(Oc3ccnc4ccccc34)ccc12 [Example 39] , if possible.
Result: Condition met

Task: Also COc1cc2ncnc(Oc3ccc4c(C(=O)Nc5ccc(Cl)cc5N)cccc4c3)c2cc1OC [Example 20] , if possible.
Result: Condition met

Task: Also COc1ccc2c(Oc3ccc4c(C(=O)NCc5ccc(C(=O)Nc6ccccc6N)cc5)cccc4c3)ccnc2c1 [Example 33] , if possible.
Result: Condition not met

Task: Also COc1cc2ncnc(Oc3ccc4c(C(=O)Nc5ccc(Br)cc5N)cccc4c3)c2cc1OC [Example 21] , if possible.
Result: Condition met

Task: Also COc1cc2ncnc(Oc3ccc4c(C(=O)Nc5ccccc5N)cccc4c3)c2cc1OC [Example 16] , if possible.
Result: Condition met

Task: Also Nc1ccccc1NC(=O)c1cccc2cc(Oc3ccnc4cc(Cl)ccc34)ccc12 [Example 41] , if possible.
Result: Condition not met
